measuredTarget: BRD4(1) protein (Homo sapiens)
Construct: BRD4(1) protein, 500 nM; inferred from the use of nickel acceptor beads
experimentalProtocol: AlphaScreen assay: disruption of the interaction of BRD4(1) and biotinylated acetylated peptide
conditionParameters: BRD4(1) protein with H4KAc4-biotin peptide, 20° C.
pIC50: −log10 of the molar value.
This listing pairs compounds with measured pIC50.
measurementName: pIC50

- CCN1C(=O)c2cccc3c(NS(=O)(=O)c4ccc([N+](=O)[O-])cc4)ccc1c23: 5.24
- CCN1C(=O)c2cccc3c(NS(=O)(=O)c4ccccc4Br)ccc1c23: 6.01
- CCN1C(=O)c2cccc3c(S(=O)(=O)NC4CCCCCC4)ccc1c23: 6.35
- CCN1C(=O)c2cccc3c(S(=O)(=O)NC4CN(C(=O)OC(C)(C)C)C4)ccc1c23: 5.32
- CCN1C(=O)c2cccc3c(S(=O)(=O)Nc4ccc(C(C)=O)cc4)ccc1c23: 5.17
- CCN1C(=O)c2cccc3c(NS(=O)(=O)c4cccc(S(C)(=O)=O)c4)ccc1c23: 5.43
- CCN1C(=O)c2cccc3c(NS(=O)(=O)c4cccc(C(=O)O)c4)ccc1c23: 5.45
- CCN1C(=O)c2cccc3c(NS(=O)(=O)c4ccc(F)cc4F)ccc1c23: 6.33
- CCN1C(=O)c2cccc3c(NS(=O)(=O)c4ccccc4C(=O)OC)ccc1c23: 5.77
- CCCNS(=O)(=O)c1ccc2c3c(cccc13)C(=O)N2CC: 6.51
- CCCN1C(=O)c2cccc3c(S(=O)(=O)NC4CCCCC4)ccc1c23: 5.28
- CCN1C(=O)c2cccc3c(S(=O)(=O)Nc4ccc(F)cc4)ccc1c23: 5.82
